Organism: Danio rerio
Assay: Antiangiogenic activity in fli-1:enhanced GFP expressing transgenic zebrafish embryo assessed as inhibition of neovacularisation at 10 uM after 24 hrs relative to control
Assay type: functional
MEASUREMENT_KIND: inhibition (INH)

>>> test_result("C=CCc1cc(C=O)c(O)c(-c2cc(C=O)c(O)c(CC=C)c2)c1")
"25%"
>>> test_result("C=CCc1ccc(OC(C)C)c(-c2ccc(O)c(CC=C)c2)c1")
"<25%"
>>> test_result("C=CCc1ccc(O)c(-c2ccc(OC(C)C)c(CC=C)c2)c1")
"<25%"
>>> test_result("C=CCc1cc(-c2ccc(C(F)(F)F)cc2)ccc1O")
"<25%"
>>> test_result("C=CCc1ccc(O)c(-c2cccc([N+](=O)[O-])c2)c1")
"<25%"

q: Given the compound C=CCc1ccc(O)c(-c2ccc(O)c(CC=C)c2)c1 , what is its reported inhibition (INH)?
a: 25%

q: Given the compound C=CCc1cc(-c2cc(F)cc(F)c2)ccc1O , what is its reported inhibition (INH)?
a: <25%

q: Given the compound C=CCc1cc(C=O)c(OC)c(-c2ccc(OC)c(CC=C)c2)c1 , what is its reported inhibition (INH)?
a: <25%

* * *

System: A549
Assay: Antiproliferative activity against human A549 cells after 24 hrs by MTT assay
Format: functional, cell-based
Conditions: A549, 24 h
Listing of entries alongside the reported IC50.

Some compounds with known IC50 results, for comparison:
>>> test_result("C=CCc1ccc(O)c(-c2ccc(O)cc2)c1")
"76.2 µM"
>>> test_result("C=CCc1cc(-c2cccc(C(F)(F)F)c2)ccc1O")
"73 µM"
>>> test_result("C=CCc1ccc(OC(C)C)c(-c2ccc(OC(C)C)c(CC=C)c2)c1")
"> 114 µM"
>>> test_result("C=CCc1cc(-c2ccc(OC)cc2)ccc1OC")
"> 100 µM"
>>> test_result("C=CCc1cc(C=O)c(O)c(-c2cc(C=O)c(O)c(CC=C)c2)c1")
"30.2 µM"

Let us move to another entry and its IC50.
q: Given the compound C=CCc1cc(-c2cc(F)cc(F)c2)ccc1O , what is its reported IC50?
a: > 100 µM

* * *

Test system: A549
Test: Antiproliferative activity against human A549 cells after 24 hrs by MTT assay
Type: functional, cell-based
Conditions: A549, 24 h
Listing of entries alongside the reported pIC50.
The quantity pIC50 is defined as the negative base-10 logarithm of the molar concentration.

>>> test_result("C=CCc1cc(-c2cccc(SC)c2)ccc1O")
4.18
>>> test_result("C=CCc1cc(-c2cccc([N+](=O)[O-])c2)cc(CC=C)c1O")
4.10
>>> test_result("C=CCc1ccc(O)c(-c2ccc(OCC)c(CC=C)c2)c1")
4.29
>>> test_result("C=CCc1cc(-c2ccccc2C(F)(F)F)ccc1O")
4.22
>>> test_result("C=CCc1cc(C=O)c(OC)c(-c2ccc(O)c(CC=C)c2)c1")
4.54

q: Given the compound C=CCc1ccc(OC)c(-c2ccc(OC)cc2)c1 , what is its reported pIC50?
a: 4.02

q: Given the compound C=CCc1cc(C=O)c(O)c(-c2ccc(O)c(CC=C)c2)c1 , what is its reported pIC50?
a: 4.36

q: Given the compound C=CCc1ccc(OC(C)C)c(-c2ccc(O)c(CC=C)c2)c1 , what is its reported pIC50?
a: 4.27

* * *

System: A549
Test: Antiproliferative activity against human A549 cells after 24 hrs by MTT assay
Assay type: functional, cell-based
Details: A549, 24 h
Listing of entries alongside the reported pIC50.
The quantity pIC50 is defined as the negative base-10 logarithm of the molar concentration.

Some compounds with known pIC50 results, for comparison:
>>> test_result("C=CC(C)(C)c1cc(-c2cccc([N+](=O)[O-])c2)ccc1O")
4.19
>>> test_result("C=CCc1ccc(O)c(-c2ccc(OC(C)C)c(CC=C)c2)c1")
4.37
>>> test_result("C=CCc1cc(-c2ccc(C(F)(F)F)cc2)ccc1O")
4.12
>>> test_result("C=CCc1cc(C=O)c(OCC)c(-c2ccc(OCC)c(CC=C)c2)c1")
4.41

q: Given the compound C=CCc1cc(-c2ccc(OC)cc2)cc(CC=C)c1O , what is its reported pIC50?
a: 4.12

q: Given the compound C=CCc1ccc(OCCC)c(-c2ccc(O)c(CC=C)c2)c1 , what is its reported pIC50?
a: 4.27

q: Given the compound C=CCc1ccc(O)c(-c2ccc(OCCC)c(CC=C)c2)c1 , what is its reported pIC50?
a: 4.08

q: Given the compound C=CCc1ccc(OCC)c(-c2ccc(O)c(CC=C)c2)c1 , what is its reported pIC50?
a: 4.09

* * *

Species on record: Danio rerio
Assay: Antiangiogenic activity in fli-1:enhanced GFP expressing transgenic zebrafish embryo assessed as inhibition of neovacularisation at 10 uM after 24 hrs relative to control
Format: functional
Listing of entries alongside the reported inhibition (INH).

>>> test_result("C=CCc1cc(C=O)c(OC)c(-c2ccc(O)c(CC=C)c2)c1")
"<25%"
>>> test_result("C=CCc1cc(C=O)c(O)c(-c2ccc(O)c(CC=C)c2)c1")
"25%"
>>> test_result("C=CCc1cc(C=O)c(OCC)c(-c2ccc(OCC)c(CC=C)c2)c1")
"<25%"

q: Given the compound C=CCc1cc(-c2cccc([N+](=O)[O-])c2)cc(CC=C)c1O , what is its reported inhibition (INH)?
a: <25%

q: Given the compound C=CCc1ccc(O)c(-c2ccc(O)cc2)c1 , what is its reported inhibition (INH)?
a: <25%

q: Given the compound C=CCc1cc(-c2ccc(OC)cc2)cc(CC=C)c1O , what is its reported inhibition (INH)?
a: <25%

* * *

Test system: A549
Assay: Antiproliferative activity against human A549 cells after 24 hrs by MTT assay
Assay type: functional, cell-based
Details: A549, 24 h
Listing of entries alongside the reported IC50.

Some compounds with known IC50 results, for comparison:
>>> test_result("C=CCOc1ccc(-c2cccc([N+](=O)[O-])c2)cc1CC=C")
"> 100 µM"
>>> test_result("C=CC(C)(C)c1cc(-c2ccc(OC)cc2)ccc1O")
"> 100 µM"
>>> test_result("C=CCc1cc(C=O)c(OC)c(-c2ccc(OC)c(CC=C)c2)c1")
"42.6 µM"

q: Given the compound C=CCc1cc(-c2cccc(OC)c2)ccc1O , what is its reported IC50?
a: > 100 µM

q: Given the compound C=CCc1cc(-c2ccccc2)ccc1O , what is its reported IC50?
a: > 100 µM

q: Given the compound C=CCc1cc(CO)c(O)c(-c2ccc(O)c(CC=C)c2)c1 , what is its reported IC50?
a: > 135 µM

* * *

Organism: Danio rerio
Experiment: Antiangiogenic activity in fli-1:enhanced GFP expressing transgenic zebrafish embryo assessed as inhibition of neovacularisation at 20 uM after 24 hrs relative to control
Assay type: functional
Listing of entries alongside the reported inhibition (INH).

Some molecules with known inhibition (INH) results, for comparison:
>>> test_result("C=CCc1ccc(O)c(-c2ccc(O)c(CC=C)c2)c1")
"50%"
>>> test_result("C=CCc1ccc(OCCC)c(-c2ccc(O)c(CC=C)c2)c1")
"<25%"
>>> test_result("C=CCc1cc(-c2ccc(C(F)(F)F)cc2)ccc1O")
"<25%"
>>> test_result("C=CCc1cc(-c2cccc([N+](=O)[O-])c2)cc(CC=C)c1O")
"<25%"
>>> test_result("C=CCc1ccc(OC(C)C)c(-c2ccc(O)c(CC=C)c2)c1")
"<25%"

Let us move to another entry and its inhibition (INH).
q: Given the molecule C=CCc1cc(C=O)c(OC)c(-c2ccc(OC)c(CC=C)c2)c1 , what is its reported inhibition (INH)?
a: <25%

* * *

Organism: Danio rerio
Assay: Antiangiogenic activity in fli-1:enhanced GFP expressing transgenic zebrafish embryo assessed as inhibition of neovacularisation at 10 uM after 24 hrs relative to control
Assay type: functional
MEASUREMENT_KIND: inhibition (INH)

Some compounds with known inhibition (INH) results, for comparison:
>>> test_result("C=CCc1ccc(OCCC)c(-c2ccc(O)c(CC=C)c2)c1")
"<25%"
>>> test_result("C=CCc1cc(-c2ccccc2C(F)(F)F)ccc1O")
"<25%"

Let us move to another entry and its inhibition (INH).
q: Given the compound C=CCc1ccc(O)c(-c2ccc(OC)c(CC=C)c2)c1 [METHYLHONOKIOL] , what is its reported inhibition (INH)?
a: <25%

* * *

Listing of entries alongside the reported pIC50.
System: A549
Assay: Antiproliferative activity against human A549 cells after 24 hrs by MTT assay
Type: functional, cell-based
Conditions: A549, 24 h
pIC50: −log10 of the molar value.

Some compounds with known pIC50 results, for comparison:
>>> test_result("C=CCc1cc(-c2cccc(NC(C)=O)c2)ccc1OC")
"< 4.00"
>>> test_result("C=CCc1ccc(O)c(-c2cccc([N+](=O)[O-])c2)c1")
"< 4.00"
>>> test_result("C=CCc1cc(-c2ccc(C(F)(F)F)cc2)ccc1OC")
"< 4.00"

Let us move to another entry and its pIC50.
q: Given the compound C=CCc1ccc(OCC(=O)OCC)c(-c2ccc(OCC(=O)OCC)c(CC=C)c2)c1 , what is its reported pIC50?
a: < 4.04
